experiment-summary: qHTS Assay for Identification of Small Molecule Antagonists for NFkB Signaling Pathway. (AID 624479);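 further: pathway stimulated with TNF alpha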
details: NFkB pathway reporter cell assay, antagonist mode; series mostly up to 38.3 µM
Activity calls are given as the source filed them. The call rests on the fitted dose curve.
Classes to choose from: TRUE for active, FALSE for inactive

O=C(C=Cc1ccc(/C=C/C(=O)Nc2ccc(C3=NCCN3)cc2)cc1)Nc1ccc(C2=NCCN2)cc1 = FALSE
O=C(c1cc(Cc2n[nH]c(=O)c3ccccc23)ccc1F)N1CCN(C(=O)C2CC2)CC1 = FALSE
CN(C(=O)c1ccc(F)cc1C(F)(F)F)C1CCN(c2nnc(-c3ccnn3C)c3ccccc23)CC1 = FALSE
CO[C@@H]1[C@H](N(C)C(=O)c2ccccc2)C[C@H]2O[C@]1(C)n1c3ccccc3c3c4c(c5c6ccccc6n2c5c31)C(=O)NC4 = FALSE

Would you kindly look at the next entry?
I would be grateful if you could indicate the recorded call for `CCCS(=O)(=O)Nc1ccc(F)c(C(=O)c2c[nH]c3ncc(Cl)cc23)c1F` .
TRUE

---

Test system: PC26
experiment-summary: qHTS profiling for inhibitors of Plasmodium falciparum proliferation (AID 504749); further: nearly all actives have a fitted effect of over 60% in size
details: P. falciparum in erythrocytes, SYBR Green DNA, 72 h; series mostly up to 28.7 µM
Experimental: NIH National Institute of Allergy and Infectious Diseases [NIAID] NIH Chemical Genomics Center [NCGC] […] Because mature erythrocytes lack DNA, only Plasmodium-derived DNA is detected. NCGC Assay Protocol Summary: The SYBR Green viability assay was adapted from a method described previously (Plouffe et al., 2008). […] The following morning, fluorescence intensity at 485(14) nm excitation and 535(25) nm emission wavelengths was measured on an EnVision (Perkin Elmer) plate reader. […]
Inconclusive results are not listed. Activity calls are given as the source filed them. Calls come from the whole dose curve; as a rule, active = well fitted inhibition curve with a large enough effect; inconclusive = small, poorly fitted or top-dose-only effect; inactive = flat fitted curve, though single readings scatter.
Classes to choose from: active, inactive

// below: answered compounds
CC(C[N+](C)(C)C)OC(N)=O (centres undefined) = inactive
Nc1ccc(S(=O)(=O)Nc2ccnn2-c2ccccc2)cc1 = inactive
NNCCc1ccccc1 = inactive
Cc1cn[nH]c1 = inactive
Oc1ccc(C2CNCCc3c2cc(O)c(O)c3Cl)cc1 (centres undefined) = inactive

I would be grateful if you could indicate the recorded call for `O=c1n(CCCN2CCN(c3cccc(Cl)c3)CC2)nc2ccccn12` .
inactive

I would be grateful if you could indicate the recorded call for `Cc1[nH]c(=O)c(C#N)cc1-c1ccc2nccn2c1` .
inactive

I would be grateful if you could indicate the recorded call for `Cc1oncc1C(=O)Nc1ccc(C(F)(F)F)cc1` .
inactive

I would be grateful if you could indicate the recorded call for O=C1CCC(N2C(=O)c3ccccc3C2=O)C(=O)N1 (centres undefined) .
inactive

I would be grateful if you could indicate the recorded call for `CNC[C@H](O)c1cccc(O)c1` .
inactive

---

experiment-summary: Quantitative High-Throughput drug screen in 47 multiple myeloma cell lines against the NCATS MIPE library collection: OPM1_PLB cell viability assay (AID 1918989); further: nearly all actives have a fitted effect of over 40% in size
details: CellTiter-Glo, 48 h; series mostly up to 45.8 µM
Records with an inconclusive call do not appear. Active and inactive are the calls of the source. The call rests on the fitted dose curve; in most records, active means well fitted cell-killing curve with a large enough effect; inconclusive means small, poorly fitted or top-dose-only effect, or effect the other way; inactive means no such curve, though single readings can be large or run the other way.
Classes to choose from: active, inactive

// below: answered compounds
CC(C)C[C@H](NC(=O)[C@@H](O)[C@H](N)Cc1ccccc1)C(=O)O = active
COc1c(Cl)cc2c([nH]c3cnccc32)c1NC(=O)c1cccnc1C = active
COc1ccc(-c2c(-c3ccc(O)cc3O)n[nH]c2C)cc1 = active
C[C@]1(c2nc3c(C(N)=O)cccc3[nH]2)CCCN1 = inactive
NNCCc1ccccc1 = inactive

Would you kindly look at the next entry?
I would be grateful if you could indicate the recorded call for `CN(C)C(=O)c1ccc(S(=O)(=O)c2ccc(NC(=O)[C@@](C)(O)C(F)(F)F)c(Cl)c2)cc1` .
inactive

Data credit: PubChem BioAssay (NCATS)
